- MEASURED_TARGET: EPHB2 (UniProt P29323)
- Sequence (P29323 whole entry, looked up): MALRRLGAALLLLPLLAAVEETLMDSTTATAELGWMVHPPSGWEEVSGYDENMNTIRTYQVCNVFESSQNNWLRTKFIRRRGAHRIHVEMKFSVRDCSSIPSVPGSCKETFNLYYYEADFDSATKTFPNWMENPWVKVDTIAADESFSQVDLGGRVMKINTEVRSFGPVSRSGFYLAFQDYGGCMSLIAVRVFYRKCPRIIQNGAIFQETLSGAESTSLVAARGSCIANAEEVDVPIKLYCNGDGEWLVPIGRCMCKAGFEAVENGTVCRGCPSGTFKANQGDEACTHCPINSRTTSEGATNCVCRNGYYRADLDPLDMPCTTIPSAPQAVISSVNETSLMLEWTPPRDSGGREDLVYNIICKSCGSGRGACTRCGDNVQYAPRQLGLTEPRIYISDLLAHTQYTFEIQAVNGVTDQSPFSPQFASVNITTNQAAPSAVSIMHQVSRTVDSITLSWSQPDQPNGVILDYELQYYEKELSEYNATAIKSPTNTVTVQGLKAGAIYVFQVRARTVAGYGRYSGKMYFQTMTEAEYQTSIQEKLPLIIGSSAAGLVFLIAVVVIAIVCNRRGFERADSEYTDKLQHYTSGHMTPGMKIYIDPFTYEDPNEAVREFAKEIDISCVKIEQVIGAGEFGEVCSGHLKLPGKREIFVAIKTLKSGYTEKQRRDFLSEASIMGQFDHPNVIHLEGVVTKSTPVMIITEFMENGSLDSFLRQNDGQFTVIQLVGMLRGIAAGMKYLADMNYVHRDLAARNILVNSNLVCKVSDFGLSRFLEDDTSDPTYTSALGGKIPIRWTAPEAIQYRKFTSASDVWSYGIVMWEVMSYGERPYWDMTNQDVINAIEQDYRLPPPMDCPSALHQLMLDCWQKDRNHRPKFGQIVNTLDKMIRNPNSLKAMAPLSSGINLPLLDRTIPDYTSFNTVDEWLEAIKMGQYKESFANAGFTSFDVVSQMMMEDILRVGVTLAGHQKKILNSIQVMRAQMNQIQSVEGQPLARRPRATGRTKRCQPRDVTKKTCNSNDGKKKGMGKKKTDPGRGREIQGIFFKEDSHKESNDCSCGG
- ASSAY_INFO: phosphorylation enrichment, bacterial display (enrichment ratio); higher = better substrate or ligand; peptides without Tyr show the background;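 note: 11-residue human phosphosite peptides and single-mutation variants displayed on the E. coli surface, counted by deep sequencing, each peptide's frequency after selection divided by its frequency in the unselected input library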;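 note: frequency after pTyr selection over input frequency; kinase dosed for 20-30% of maximal phosphorylation in three min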
Give class 1 when the value for phosphorylation enrichment is at least 0.5. Give class 0 when it is less.

[[record]]
biosequence = "FSCLPCGRLAY [SLC52A2_Y305_Y305C]"
category = "class 0"

[[record]]
biosequence = "IRGNMYYENSY [EGFR_Y112]"
category = "class 1"

[[record]]
biosequence = "NVTRKYSRQIL [MAP3K2_Y463_T464S]"
category = "class 0"

[[record]]
biosequence = "SGSWSYNTSTE [SELE_Y24_A21S]"
category = "class 1"

[[record]]
biosequence = "SGGCSYGSGGG [KRT1_Y539_G537C]"
category = "class 0"

[[record]]
biosequence = "QKINNYLTVPA [SLC9A1_Y683]"
category = "class 1"


Quick check: does KGSLPYNLILD [PKD1L2_Y406] have phosphorylation enrichment greater than or equal to 0.5?
class 0
